target: von Willebrand factor A1 domain (Homo sapiens, UniProt P04275 SEQ:13-246); test: filter; DPBS, 0.1 mg/mL BSA, RT; details: label: 5'-32P
Sequence (P04275 1238-1471 T1381A): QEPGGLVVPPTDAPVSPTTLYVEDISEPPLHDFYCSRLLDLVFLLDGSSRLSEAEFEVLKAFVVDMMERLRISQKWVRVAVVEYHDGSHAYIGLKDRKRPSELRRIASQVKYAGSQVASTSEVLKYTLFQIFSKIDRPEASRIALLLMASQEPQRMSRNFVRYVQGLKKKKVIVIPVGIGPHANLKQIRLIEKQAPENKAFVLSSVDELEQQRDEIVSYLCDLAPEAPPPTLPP
Answer each item with its documented pKd.
For clarity, pKd is expressed as the negative log10 of concentration in mol/L.

[Q] Returns the measured pKd for the input binder. Input: AMX206.D7 (mixed, 2'-OH purines, deoxy pyrimidines) DNA: GGAGCGCACTCAGCCACGGCACGACGGTGATGAATTAGCGCGGTGTCGGTGGTGTTATTTCGACCTCTCTGCTAGC
[A] 6.73

[Q] Returns the measured pKd for the input binder. Input: AMX203.D6 (mixed, 2'-OH purines, deoxy pyrimidines) DNA: GGAGCGCACTCAGCCACAGTTCTGTCGGTGATGAATTAGCGCGAGAGCTGTGGGACGTTTCGACCTCTCTGCTAGC
[A] 6.28

[Q] Returns the measured pKd for the input binder. Input: AMX203.G9 (ARC842) (mixed, 2'-OH purines, deoxy pyrimidines) DNA: GGAGCGCACTCAGCCACGGGGTGGGTAGACGGCGGGTATGTGGCTGGTGTCGAAGGGTTTCGACCTCTCTGCTAGC
[A] 8.89

[Q] Returns the measured pKd for the input binder. Input: AMX205.F9 (mixed, 2'-OH purines, deoxy pyrimidines) DNA: GGAGCGCACTCAGCCACGGAGCGTCGGTGATGGATTAGCGCGGCTCCGTGGTACGCCTTTCGACCTCTCTGCTAGC
[A] 6.84
